Tested on: SK-OV-3 ovarian
Assay: NCI tumour cell line growth inhibition, 48 h
*1 amine or outer side, *2 acyl side, *3 side chain or, on linkers, in order; H or OH if unused. Where a SMILES comes first, the peptide text is derived from it. [ ]: non-standard residue; d: D form. The star is where a group is joined. X31 = CC(=O)N(C)SCC(N[*:1])C(=O)[*:2]; Cbz = O=C(OCc1ccccc1)*; Bn = c1ccc(C*)cc1; For = O=C*
endpoint: TGI

{"molecule": "CCN(CC)CCCCNc1c2ccccc2[n+](C)c2c1[nH]c1ccccc12", "study-target": "SK-OV-3 ovarian", "TGI": "3.72 µM"}
{"molecule": "CCc1cc(C(=O)OC)cn1C(=N)c1ccc(Cl)cc1", "study-target": "SK-OV-3 ovarian", "TGI": "> 100 µM"}
{"molecule": "N#CC(NC12CC3CC(CC(C3)C1)C2)c1ccc2c(c1)OCO2 (stereo not drawn)", "study-target": "SK-OV-3 ovarian", "TGI": "> 100 µM"}

Exercise: Report TGI for CC(=O)N(C)SCC(NC(=O)C(Cc1ccccc1)NC(=O)OCc1ccccc1)C(=O)NC(Cc1ccccc1)C(=O)NC(Cc1cn(C=O)c2ccccc12)C(=O)NC(CCCCNC(=O)OCc1ccccc1)C(=O)NC(C(=O)NC(CSN(C)C(C)=O)C(=O)NC(C(N)=O)C(C)OCc1ccccc1)C(C)OCc1ccccc1 (stereo not drawn) (Cbz-F[X31]FW(For)K(Cbz)T(Bn)[X31]T(Bn)-NH2; configuration not given here) please.
Key: 96.1 µM

Exercise: Report TGI for `Cn1cc(C(=O)NCCC(=N)N)cc1NC(=O)C1=[N+](C)C=C(NC(=O)c2cccc(C(=O)NC3=CC(C(=O)Nc4cc(C(=O)NCCC(=N)N)cn4C)=[N+](C)C3)c2)C1` please.
Key: > 100 µM

Exercise: Report TGI for COC(=O)C(=O)C(C(=O)C(=O)Nc1ccc(F)cc1)c1nc2ccc([N+](=O)[O-])cc2[nH]c1=O (stereo not drawn) please.
Key: > 100 µM

Exercise: Report TGI for `CCOP(=O)(OCC)/C(C#N)=C/c1ncc[nH]1` please.
Key: > 100 µM

Exercise: Report TGI for `COc1cc([N+](=O)[O-])c(OC)cc1-c1nc2sc(Cl)cn2c1/C(N)=N/C(=N)N` please.
Key: > 62.1 µM

The measurements presented in this section are drawn from PubChem BioAssay (NCI).
